Below: a set of entries, each annotated with reported %Inh.
Tested on: TGFBR1
condition context: concentration: 1 μM, replicates: in singlicate; n = 1;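 also: KINOMEscan kinase panel screen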
Give a bare numeral; the unit % is implied.

Check out these entries, answers already filled in.
molecule | target | unit info | %Inh
Cc1c(Cn2c(C)c(C)n3c(=O)cc(N4CCOCC4)nc23)cccc1C(F)(F)F [GSK2328680] | TGFBR1 | % | 9
CS(=O)(=O)CCNCc1nc(-c2ccc3ncnc(Nc4ccc(OCc5ccccc5)c(Cl)c4)c3c2)cs1.Cl [GW582764] | TGFBR1 | % | 58
CCn1c(-c2c(N)noc2C)nc2cnccc21 [SB-737856] | TGFBR1 | % | 4
COc1ccc(CSc2nnc(-c3ccc4ncsc4c3)o2)cc1C(F)(F)F | TGFBR1 | % | 5
COc1nccc(-c2c(-c3ccc(F)cc3)ncn2CCCN2CCOCC2)n1 [SB-282852] | TGFBR1 | % | 20
Fc1ccc(-c2nc[nH]c2-c2ccncc2)cc1 [SB-217360] | TGFBR1 | % | 37
COc1ccc(Nc2nccc(N3CCC(NC(=O)C(C)c4ccc(Cl)cc4)CC3)n2)cc1 (stereo not drawn) [GSK1379812] | TGFBR1 | % | 3
O=C(Nc1n[nH]c2nc(-c3ccco3)c(Br)cc12)C1CCN(Cc2ccccc2)C1.O=C(O)[C@H](O)[C@@H](O)C(=O)O (stereo not drawn) [SB-742034] | TGFBR1 | % | 0

Sample COc1ccc(CSc2nnc(-c3ccc4nccn4c3)o2)cc1C(F)(F)F ; %Inh observed: 14

Entry under test: CS(=O)(=O)CCNCc1nc(-c2ccc3ncnc(Nc4ccc5c(cnn5Cc5ccccc5)c4)c3c2)cs1.Cl.Cl [GW569716] . Its %Inh was 27

Noted for COc1ccc(CSc2nnc(-c3ccc4c(c3)CCO4)o2)cc1 : its %Inh reads 0

###

Test system: MKNK1
condition context: concentration: 1 μM, replicates: in singlicate; n = 1
Measured %Inh accompanies every entry in the list below.
Express the result in % but write the number alone.

See these solved cases before continuing.
molecule | target | %Inh / %
COc1ccc(Nc2nccc(N3CCC(NC(=O)C(C)c4ccc(Cl)cc4)C3)n2)cc1 (stereo not drawn) | MKNK1 | 12
CNc1nc(-c2ccc3c(N)n[nH]c3c2)cc(N2C[C@@H](C(=O)NC3CCCCC3)OC[C@H]2C)n1 | MKNK1 | 10
Fc1ccc(-c2nc[nH]c2-c2ccncc2)cc1 | MKNK1 | 0
Cn1cncc1-c1cc2c(Nc3ccc(OCc4ccccc4)cc3)ncnc2cn1 | MKNK1 | 0
Fc1ccc(-c2nn3cccc(F)c3c2-c2ccncc2)cc1 | MKNK1 | 0
Cl.Cl.Cl.N#Cc1ccc(CCNc2nccc(-c3cccc(CN4CCNCC4)c3)n2)cc1 | MKNK1 | 46
COc1cccc(NC(=O)Nc2ccc(C)c(-c3ccc(C(=O)Nc4ccncc4)cc3)c2)c1 | MKNK1 | 4
CCn1c(-c2ccccc2)nc2cnccc21 | MKNK1 | 25

Read the next record carefully.
For record Cc1nccc(-c2c(-c3ccc(F)cc3)ncn2CCCN2CCOCC2)n1.Cl the listed %Inh is 11

###

Test system: DYRK2
condition context: concentration: 1 μM, replicates: in singlicate; n = 1
I would appreciate it if you labelled entries YES when %Inh is 8% or higher, otherwise NO.

compound | discrete label
c1ccc(-c2ccnc3[nH]ccc23)cc1 [SB-693578] | YES

Challenge: Please indicate if the recorded %Inh for O=C1NC(=O)C(c2ccc(Cl)cc2)=C1Nc1cccc(Cl)c1 [SB-317651] meets or exceeds 8%.
Response given: NO

Challenge: Is it the case that COC(=O)C(Cc1ccccc1)NC(=O)NC1CCN(c2ccnc(Nc3ccc(F)cc3)n2)C1 (stereo not drawn) [GSK1379714] has %Inh reaching or exceeding 8%?
Response given: NO

Challenge: Is reported %Inh greater than or equal to 8% here: Nc1cccc(-c2ccc3c(N)n[nH]c3c2)n1 [GSK2192730]
Response given: YES

Challenge: Hi, just wondering whether O=c1cc(N2CCOCC2)nc2n(Cc3ccccc3F)ccn12 [GSK2297428] shows %Inh of 8% or higher.
Response given: YES

Challenge: Hi team, for Cc1ccc(NC(=O)Nc2ccc(Cl)cc2)cc1-c1ccc(C(=O)Nc2ccncc2)cc1 [GSK1398472] , is the recorded %Inh at or above 8%?
Response given: NO

Challenge: # bool: %Inh of COC(=O)c1cccc(NC(=O)NC2CCN(c3ccnc(Nc4ccc(OC)cc4)n3)C2)c1 (stereo not drawn) [GSK1379746] >= 8%
Response given: YES

Challenge: Is it the case that CCn1c(-c2ccccc2)nc2cnccc21 [SB-733416] has %Inh reaching or exceeding 8%?
Response given: NO

###

System: RIPK5
condition context: concentration: 1 μM, replicates: in singlicate; n = 1
Catalogue of compounds with associated %Inh
Please give a number only; it is taken to be in %.

Example compounds with recorded %Inh:
compound | quantity kind | reading
COc1ccc(Nc2nccc(-c3ccc(NC(=O)c4cc5cc(F)ccc5[nH]4)cc3)n2)cc1 | %Inh | 0
CNCc1ccc2nc(NC(=O)c3ccc(C(C)(C)C)cc3)cn2c1 | %Inh | 11
O=C(Nc1n[nH]c2cc(-c3ccsc3)ccc12)C1CC1 | %Inh | 8

Lab note: CNc1nc(-c2ccc3c(N)n[nH]c3c2)cc(N2C[C@@H](C(=O)Nc3ccccc3)CC[C@H]2C)n1 gave %Inh of 0

Query Cc1ccccc1Cn1ccn2c(=O)cc(N3CCOCC3)nc12 yields %Inh of 0

Short answer for COc1cccc(CNC(=O)NC2CCN(c3ccnc(Nc4ccc(F)cc4)n3)C2)c1 (stereo not drawn) : %Inh was 10

// Cl.Cl.Cl.N#Cc1ccc(CCNc2nccc(-c3cccc(CN4CCNCC4)c3)n2)cc1 : %Inh value = 19

// sample COC(=O)c1cccc(NC(=O)NC2CCN(c3ccnc(Nc4ccc(F)cc4)n3)C2)c1 (stereo not drawn) , its %Inh was 0

get_value(item= COc1cccc(C2=C(Nc3cc(Cl)c(O)c(Cl)c3)C(=O)NC2=O)c1 , readout=%Inh) returns 7

###

Tested on: ADCK4
condition context: concentration: 1 μM, replicates: in singlicate; n = 1
# strict inequality: %Inh < 9% yields 1 (yes), everything else yields 0 (no)

Illustrative cases are given below, each with its answer.
compound | discrete label
CC(=O)c1c(C)c2cnc(Nc3ccn(C)n3)nc2n(C2CCCC2)c1=O | 1 (yes)
COc1nccc(-c2c(-c3ccc(F)cc3)ncn2CCCN2CCOCC2)n1 [SB-282852] | 0 (no)
CNc1cc(-c2ccc3c(N)n[nH]c3c2)nc(N)n1 [GSK2224810] | 0 (no)

Challenge: Hello, is %Inh of the following compound strictly smaller than 9%? O=C(Nc1n[nH]c2nc(-c3cccs3)c(Br)cc12)C1CCCC1 [SB-743341]
Response given: 1 (yes)

Challenge: Is 9% strictly greater than the compound's reported %Inh? compound: CC[C@@H]1CO[C@H](C(=O)Nc2ccccc2)CN1c1cc(-c2ccc3c(N)n[nH]c3c2)nc(NC)n1 [GSK2376236]
Response given: 0 (no)

Challenge: Field: below-cutoff. Rule: recorded %Inh strictly less than 9%. Subject: COC(=O)c1cccc(NC(=O)NC2CCN(c3ccnc(Nc4ccc(OC)cc4)n3)C2)c1 (stereo not drawn) [GSK1379746]
Response given: 0 (no)

Challenge: Lab note: %Inh threshold 9%. Does this compound come in strictly under it? Cn1cnc2c(N)ncnc21 [SKF-97623]
Response given: 0 (no)

Challenge: Record COC(=O)c1cccc(NC(=O)NC2CCN(c3ccnc(Nc4ccc(F)cc4)n3)C2)c1 (stereo not drawn) [GSK1379725] : is its %Inh strictly below 9%?
Response given: 0 (no)

###

Test system: PIM1
condition context: concentration: 1 μM, replicates: in singlicate; n = 1
quantity kind: %Inh (%)
Dear colleague, please return just the value in %, with no unit written.

smiles str | unit info | %Inh
NS(=O)(=O)c1cccc(N/C=C2\C(=O)Nc3ccc(S(=O)(=O)Cc4c(Cl)cccc4Cl)cc32)c1 | % | 0
Cl.Cl.Cl.N#Cc1ccc(CCNc2nccc(-c3cccc(CN4CCNCC4)c3)n2)cc1 | % | 20
CC(C)c1ccc(O)cc1Nc1ccnc2ccc(C(F)(F)F)cc12 | % | 19

Measured %Inh of COc1ccc(CSc2nnc(-c3ccc4nccn4c3)o2)cc1C(F)(F)F : 6

Entry Cn1cncc1-c1cc2c(Nc3ccc(OCc4ccccc4)cc3)ncnc2cn1 , %Inh reported as 0

###

Tested on: DMPK
condition context: concentration: 1 μM, replicates: in singlicate; n = 1
compounds and their reported %Inh
Use % as the unit, but write only the number.

compound | %Inh, %
O=C1NC(=O)C(c2ccc(Cl)cc2)=C1Nc1cccc(Cl)c1 [SB-317651] | 0
NS(=O)(=O)c1cccc(N/C=C2\C(=O)Nc3ccc(S(=O)(=O)Cc4c(Cl)cccc4Cl)cc32)c1 [GSK398099] | 0
COc1cccc(C2=C(Nc3cc(Cl)c(O)c(Cl)c3)C(=O)NC2=O)c1 [SB-390767] | 0
CC(C)c1ccc(O)cc1Nc1ccnc2ccc(C(F)(F)F)cc12 [GW482059] | 0
CC(=O)c1c(C)c2cnc(Nc3ccn(C)n3)nc2n(C2CCCC2)c1=O | 0

Per the records, this compound ( Fc1ccc(-c2nc3n(c2-c2ccncc2)CCS3)cc1 [GI98581] ) has %Inh equal to 16

Form field %Inh, entry Nc1cccc(-c2ccc3c(N)n[nH]c3c2)n1 [GSK2192730] : 0

Entry Cc1cnc(N)c(/C=C/c2cncc(C(=O)NCCc3ccc(Cl)cc3Cl)c2)c1.Cl [GSK190937] , %Inh reported as 0

%Inh for CCc1ccc(-c2ccc3c(c2)-c2n[nH]cc2S(=O)(=O)N3C)cc1 is 0

Field %Inh (entry CS(=O)(=O)CCNCc1nc(-c2ccc3ncnc(Nc4ccc5c(cnn5Cc5ccccc5)c4)c3c2)cs1.Cl.Cl [GW569716] ) reads 0

So for Cc1nccc(-c2c(-c3ccc(F)cc3)ncn2CCCN2CCOCC2)n1.Cl [SB-282975] , the logged %Inh turned out to be 22

Measured %Inh, CN1c2ccc(-c3ccc(C(N)=O)cc3)cc2-c2[nH]ncc2S1(=O)=O : 0

Note to self: %Inh recorded for Cc1ccc(NC(=O)Nc2ccc(Cl)cc2)cc1-c1ccc(C(=O)Nc2ccncc2)cc1 [GSK1398472] was 0

Memo: Fc1ccc(-c2nn3cccc(F)c3c2-c2ccncc2)cc1 [GW475620] , reported %Inh: 28

The compound listed as CC(=O)c1c(C)c2cnc(Nc3ccc(N4CCNCC4)cn3)nc2n(C2CCCC2)c1=O shows %Inh equal to 15

Looking up O=c1cc(N2CCOCC2)nc2n(Cc3cccc(Cl)c3Cl)c3ccccc3n12 [GSK2299009] , I found its %Inh recorded as 10

Data point: COc1ccc(-c2coc3ccc(-c4nnc(C)o4)cc23)cc1 ; %Inh = 0

response.value for Cn1cncc1-c1cc2c(Nc3ccc(OCc4ccccc4)cc3)ncnc2cn1 [GW281179] (field: %Inh) = 0
